- EXPERIMENTAL TARGET: cyclooxygenase (Ovis aries, UniProt P05979)
- Construct: Ram seminal vesicular glands were trimmed of fat; from tissue; host or cells: ram seminal vesicular glands, microsomal pellet (105K xg)
- Sequence (P05979 25-600): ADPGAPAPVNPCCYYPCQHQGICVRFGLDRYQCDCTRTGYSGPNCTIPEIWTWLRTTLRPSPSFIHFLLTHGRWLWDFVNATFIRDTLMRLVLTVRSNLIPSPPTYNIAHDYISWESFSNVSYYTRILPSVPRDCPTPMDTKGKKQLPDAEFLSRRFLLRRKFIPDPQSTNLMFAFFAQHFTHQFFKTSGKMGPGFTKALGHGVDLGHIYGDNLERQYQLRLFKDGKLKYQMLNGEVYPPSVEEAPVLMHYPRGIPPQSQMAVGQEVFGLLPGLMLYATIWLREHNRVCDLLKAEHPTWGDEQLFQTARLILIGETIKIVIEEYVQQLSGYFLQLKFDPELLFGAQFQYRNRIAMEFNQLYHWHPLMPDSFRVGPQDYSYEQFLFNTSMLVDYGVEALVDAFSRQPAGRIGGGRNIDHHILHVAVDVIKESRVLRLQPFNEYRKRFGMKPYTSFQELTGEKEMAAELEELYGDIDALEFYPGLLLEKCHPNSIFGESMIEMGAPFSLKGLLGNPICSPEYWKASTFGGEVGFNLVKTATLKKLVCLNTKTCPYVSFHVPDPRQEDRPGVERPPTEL
- ASSAY: RSVM-CO: Ram Seminal Vesicle Microsomal Cyclooxygenase assay
- Type: biochemical
- CONDITION CONTEXT: 1 μg/ml
Some compounds, each annotated with its measured inhibition at 1 µg/mL.
READOUT TYPE: inhibition at 1 µg/mL (%)

> print(dat)
                                   compound           readout.type  measured.result
1  Oc1cc(-c2ccccc2)sc1-c1ccccc1 [Compound 4, 3-Hydroxy-2,5-diphenylthiophene]  inhibition at 1 µg/mL                6
2  COCOc1cc(-c2ccccc2)sc1-c1ccccc1 [Compound 12]  inhibition at 1 µg/mL              100
3         CC(=O)Oc1cc(-c2cccs2)sc1-c1ccccc1  inhibition at 1 µg/mL                0
4  CC(=O)Oc1cscc1-c1ccccc1 [Compound 15, 3-Acetoxy-4-phenylthiophene]  inhibition at 1 µg/mL                0
5       COc1ccc(-c2sc3c(c2OC(C)=O)CCCC3)cc1  inhibition at 1 µg/mL               11

====

- EXPERIMENTAL TARGET: 5-lipoxygenase (Rattus norvegicus, UniProt P12527)
- Construct: endogenous in cells; host or cells: casein-elicited peritoneal polymorphonuclear leukocytes of male Sprague-Dawley rats
- Sequence (P12527 1-673): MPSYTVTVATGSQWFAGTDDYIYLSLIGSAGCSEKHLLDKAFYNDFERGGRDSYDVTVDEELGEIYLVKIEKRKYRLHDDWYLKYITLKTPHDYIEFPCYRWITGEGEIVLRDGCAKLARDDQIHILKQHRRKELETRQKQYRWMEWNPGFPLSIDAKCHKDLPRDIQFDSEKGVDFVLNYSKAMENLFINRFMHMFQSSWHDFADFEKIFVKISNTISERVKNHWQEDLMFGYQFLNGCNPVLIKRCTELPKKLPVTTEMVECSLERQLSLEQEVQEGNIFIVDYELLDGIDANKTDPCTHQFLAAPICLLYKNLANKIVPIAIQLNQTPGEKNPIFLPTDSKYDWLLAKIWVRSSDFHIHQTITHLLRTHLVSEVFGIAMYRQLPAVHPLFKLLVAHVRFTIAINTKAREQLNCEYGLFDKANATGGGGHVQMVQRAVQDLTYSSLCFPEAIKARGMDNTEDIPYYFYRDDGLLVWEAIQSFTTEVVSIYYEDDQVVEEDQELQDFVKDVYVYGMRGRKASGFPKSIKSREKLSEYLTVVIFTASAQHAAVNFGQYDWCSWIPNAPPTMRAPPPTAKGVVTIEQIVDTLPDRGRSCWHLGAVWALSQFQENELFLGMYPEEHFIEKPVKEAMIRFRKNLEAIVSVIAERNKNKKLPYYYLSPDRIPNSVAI
- ASSAY: PMN5LO assay: inhibition of LTB4 production in A23187-stimulated rat peritoneal PMN (RIA)
- Type: cell-based
- CONDITION CONTEXT: 1 μg/ml
READOUT TYPE: PMN5LO % inhibition

> print(dat)
                                   compound  measured.result
1       COc1ccc(-c2sc3c(c2OC(C)=O)CCCC3)cc1              97%
2    COc1ccc(-c2sc(-c3ccccc3)cc2OC(C)=O)cc1              80%
3      COCC(=O)Oc1cc(-c2ccccc2)sc1-c1ccccc1              58%
4  CC(=O)Oc1c(-c2ccccc2)sc(-c2ccccc2)c1-c1ccccc1              18%
5        CC(=O)Oc1cc(-c2ccccc2)sc1-c1cccnc1              88%
6  Oc1cc(-c2ccccc2)sc1-c1ccccc1 [Compound 4, 3-Hydroxy-2,5-diphenylthiophene]              88%

Data provenance: patent US4999436A
